Target: T1, His9-hMSR1 (human MSR1 extracellular domain) (Homo sapiens, UniProt P21757)
T1 construct: human MSR1 extracellular domain expressed with a N-terminal nonahistidine tag; His9 (nonahistidine) (N); purchased R&D Systems 2708-MS
T1 sequence (P21757 77-451 limits assumed): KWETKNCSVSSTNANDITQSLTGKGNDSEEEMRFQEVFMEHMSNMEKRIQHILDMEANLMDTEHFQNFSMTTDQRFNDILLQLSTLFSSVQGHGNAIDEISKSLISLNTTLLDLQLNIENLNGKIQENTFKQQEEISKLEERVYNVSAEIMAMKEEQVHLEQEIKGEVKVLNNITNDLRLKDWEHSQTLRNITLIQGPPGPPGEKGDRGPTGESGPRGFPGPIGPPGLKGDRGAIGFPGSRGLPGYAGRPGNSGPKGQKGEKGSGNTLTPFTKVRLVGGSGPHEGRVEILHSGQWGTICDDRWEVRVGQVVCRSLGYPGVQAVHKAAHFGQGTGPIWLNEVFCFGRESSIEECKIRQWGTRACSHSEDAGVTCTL
Assay: Biacore T200 surface plasmon resonance binding kinetics of anti-MSR1 antibody-drug conjugates and parental antibodies
Details: 25° C.; Table 19; * = no dissociation observed, kd manually fixed at 1.00E−05
Criterion: kd strictly less than 0.0006 s⁻¹. Met: Met. Not met: Not met.

Examples with answers:
H1H27747P-N297Q-LP1 (conjugate) VH: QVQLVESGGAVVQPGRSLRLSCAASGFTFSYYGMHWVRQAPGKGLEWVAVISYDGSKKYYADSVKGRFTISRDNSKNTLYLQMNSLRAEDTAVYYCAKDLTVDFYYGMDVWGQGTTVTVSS VL: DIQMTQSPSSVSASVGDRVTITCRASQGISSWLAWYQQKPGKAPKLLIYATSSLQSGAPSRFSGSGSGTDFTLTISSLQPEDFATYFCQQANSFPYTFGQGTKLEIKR | Met
H1H27731P-N297Q: one of "Twelve anti-MSR1 antibodies"; "made with an N297Q single point mutation in human Fcγ portion" (antibody, V domains shown) VH: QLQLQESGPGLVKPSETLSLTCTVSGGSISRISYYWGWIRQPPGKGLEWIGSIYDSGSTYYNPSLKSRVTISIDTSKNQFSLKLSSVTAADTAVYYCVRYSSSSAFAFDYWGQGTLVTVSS VL: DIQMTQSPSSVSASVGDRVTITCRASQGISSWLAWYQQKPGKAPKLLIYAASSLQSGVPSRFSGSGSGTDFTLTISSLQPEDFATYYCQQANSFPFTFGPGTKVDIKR | Met
H1H27729P-N297Q-LP1 (conjugate) VH: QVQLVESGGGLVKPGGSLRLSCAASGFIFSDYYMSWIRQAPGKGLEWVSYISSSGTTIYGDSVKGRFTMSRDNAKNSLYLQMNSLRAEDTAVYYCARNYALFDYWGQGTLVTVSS VL: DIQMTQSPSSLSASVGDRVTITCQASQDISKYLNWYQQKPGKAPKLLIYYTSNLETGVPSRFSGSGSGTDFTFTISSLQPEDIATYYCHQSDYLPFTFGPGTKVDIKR | Not met
H1H27734P-N297Q-LP1 (conjugate) VH: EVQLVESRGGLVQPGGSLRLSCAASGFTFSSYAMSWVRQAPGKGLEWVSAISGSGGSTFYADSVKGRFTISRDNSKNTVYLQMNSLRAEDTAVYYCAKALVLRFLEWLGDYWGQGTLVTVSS VL: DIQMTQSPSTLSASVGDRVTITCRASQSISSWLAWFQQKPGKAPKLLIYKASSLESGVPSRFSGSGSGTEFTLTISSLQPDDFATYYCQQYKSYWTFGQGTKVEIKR | Met
H1H27747P-N297Q (antibody, V domains shown) VH: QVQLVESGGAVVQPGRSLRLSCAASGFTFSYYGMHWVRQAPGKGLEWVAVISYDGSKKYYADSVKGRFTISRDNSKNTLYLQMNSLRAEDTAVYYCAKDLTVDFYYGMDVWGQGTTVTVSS VL: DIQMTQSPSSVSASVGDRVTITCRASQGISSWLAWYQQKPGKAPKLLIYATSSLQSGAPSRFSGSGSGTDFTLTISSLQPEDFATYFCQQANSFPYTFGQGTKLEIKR | Met
H1H27739P-N297Q: anti-MSR1 antibody "made with an N297Q single point mutation in human Fcγ portion" (antibody, V domains shown) VH: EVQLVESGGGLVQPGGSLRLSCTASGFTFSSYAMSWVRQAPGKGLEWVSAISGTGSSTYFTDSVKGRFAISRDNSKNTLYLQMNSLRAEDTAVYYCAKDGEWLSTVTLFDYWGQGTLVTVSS VL: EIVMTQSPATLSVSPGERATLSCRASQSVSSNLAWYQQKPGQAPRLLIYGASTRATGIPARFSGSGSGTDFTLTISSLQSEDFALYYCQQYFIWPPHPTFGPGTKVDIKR | Met

// next entry
Asked: Determine whether this molecule shows kd lower than 0.0006 s⁻¹ (ties excluded): H1H27739P-N297Q-LP1 (conjugate) VH: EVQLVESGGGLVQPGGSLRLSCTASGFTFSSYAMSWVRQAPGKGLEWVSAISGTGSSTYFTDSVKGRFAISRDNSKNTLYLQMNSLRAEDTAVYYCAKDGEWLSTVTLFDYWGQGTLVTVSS VL: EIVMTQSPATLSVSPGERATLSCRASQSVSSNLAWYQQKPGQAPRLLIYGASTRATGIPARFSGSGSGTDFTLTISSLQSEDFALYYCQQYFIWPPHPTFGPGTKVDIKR
Given back: Not met

These entries and their values trace back to patent US12497460B2.
